ASSAYED_SYSTEM: OATP1B3 (Homo sapiens)
Construct: expressed in transfected cells; host or cells: HEK293 (recombinant baculovirus-mediated transduction)
Sequence (Q9NPD5 1-702): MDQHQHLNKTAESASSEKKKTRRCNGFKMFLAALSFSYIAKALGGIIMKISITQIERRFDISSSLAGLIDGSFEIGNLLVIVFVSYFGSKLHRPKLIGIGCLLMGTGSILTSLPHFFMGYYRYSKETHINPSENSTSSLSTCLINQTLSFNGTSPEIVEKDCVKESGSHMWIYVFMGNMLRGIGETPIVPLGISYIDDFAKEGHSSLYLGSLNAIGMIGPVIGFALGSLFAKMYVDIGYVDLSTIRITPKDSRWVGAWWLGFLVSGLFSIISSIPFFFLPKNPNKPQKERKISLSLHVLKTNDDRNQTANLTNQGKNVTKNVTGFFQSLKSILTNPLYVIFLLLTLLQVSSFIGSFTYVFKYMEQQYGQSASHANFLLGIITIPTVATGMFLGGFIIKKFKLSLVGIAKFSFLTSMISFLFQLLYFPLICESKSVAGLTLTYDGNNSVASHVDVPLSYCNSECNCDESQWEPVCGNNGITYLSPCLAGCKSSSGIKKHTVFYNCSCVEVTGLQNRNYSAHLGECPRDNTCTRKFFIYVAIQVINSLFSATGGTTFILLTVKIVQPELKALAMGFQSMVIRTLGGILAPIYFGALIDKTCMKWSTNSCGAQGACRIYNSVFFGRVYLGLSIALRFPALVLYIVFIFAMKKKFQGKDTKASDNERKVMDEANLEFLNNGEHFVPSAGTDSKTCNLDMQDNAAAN
ASSAY_PROTOCOL: OATP1B3 inhibition, rosuvastatin uptake into transporter-expressing HEK293 cells
Type: cell-based
DETAILS: IC50 (95% CI), μM OATP1B3, 2.5 μM rosuvastatin, 2 min, 30 min preincubation

MOLECULE: Cc1onc(-c2c(F)cccc2Cl)c1C(=O)N[C@@H]1C(=O)N2[C@@H]1SC(C)(C)[C@@H]2C(=O)O [Flucloxacillin]
IC50: 21 µM
